Reference source: patent US6380201B1

// values below are reported melting point

SMILES NOTATION: CN1CCC(c2c[nH]c3ccc(C(=O)c4ccc5ccccc5c4)cc23)CC1
DISPLAY UNIT: °C
melting point: 92
//
SMILES NOTATION: CN1CCC(c2c[nH]c3ccc(C(=O)Cc4ccccc4)cc23)CC1
DISPLAY UNIT: °C
melting point: 69

* * *

Counter-ions that a name gives are not always drawn.

COMPOUND: CCCCN1CCC(c2c[nH]c3ccc(NS(C)(=O)=O)cc23)CC1
melting point: 78 °C

COMPOUND: CC(=O)Nc1ccc2[nH]cc(C3CCN(C)CC3)c2c1
melting point: 161 to 165 °C (dec.)

COMPOUND: CN1CCC(c2c[nH]c3ccc(NC(=O)C(C)(C)C)cc23)CC1
melting point: 214 to 216 °C (dec.)

COMPOUND: CC(C)N1CCC(c2c[nH]c3ccc(NS(C)(=O)=O)cc23)CC1 (as salt: salt)
melting point: 104 to 108 °C

COMPOUND: CN1CCC(c2c[nH]c3ccc(C(=O)c4ccc(C(F)(F)F)cc4)cc23)CC1
melting point: 160 to 162 °C
